Listed next: entries and their corresponding β1-Blockade ID30 fcor.
- System: cardiac β-receptors (beta 1)
- test: Beta-receptor blocking activity: inhibition of isoprenaline (1 mcg/kg i.v.) induced heart rate increase (beta 1-blockage) in rabbits
- Assay type: in vivo, rabbit
- assayContext: i.v.; 30% inhibition of isoprenaline effect on heart rate; rabbits
State just the number; it will be interpreted in µg/kg.

As a guide, the following entries are already answered.
>  <compound>
O=C(O)/C=C/C(=O)O.O=C1Nc2cccc(OCC(O)CNCCOc3ccccc3)c2C1Cc1ccn[nH]1 (centres unmarked) [Example 7f]

>  <targetOrSystem>
cardiac β-receptors (beta 1)

>  <readoutValue>
334

$$$$
>  <compound>
COc1ccc(CCNCC(O)COc2cccc3c2CC(=O)N3)cc1 (centres unmarked) [BM 12.946, reference compound]

>  <targetOrSystem>
cardiac β-receptors (beta 1)

>  <readoutValue>
46

$$$$
>  <compound>
O=C1Nc2cccc(OCC(O)CNCCOc3ccc(O)cc3)c2C1Cc1ccccc1O (centres unmarked) [Example 7d]

>  <targetOrSystem>
cardiac β-receptors (beta 1)

>  <readoutValue>
27

$$$$
>  <compound>
CC(C)NCC(O)COc1cccc2ccccc12 (centres unmarked) [Propranolol, reference compound]

>  <targetOrSystem>
cardiac β-receptors (beta 1)

>  <readoutValue>
126

$$$$

What does the data say about its β1-Blockade ID30 fcor? Entry: O=C(O)c1ccccc1.O=C1Nc2cccc(OCC(O)CNCCOc3ccc(O)cc3)c2C1=Cc1ccccc1O (centres unmarked) [Example 1p]
192

Could you tell me which β1-Blockade ID30 fcor is on file for CC(C)NCC(O)COc1cccc2c1C(=Cc1ccccc1O)C(=O)N2 (centres unmarked) [Example 1a] ?
98

Requested read-out: β1-Blockade ID30 fcor. Entry: O=C(O)/C=C/C(=O)O.O=C1Nc2cccc(OCC(O)CNCCOc3ccc(O)cc3)c2C1Cc1ccn[nH]1 (centres unmarked) [Example 7e]
65

Which value of β1-Blockade ID30 fcor has been reported for O=C1Nc2cccc(OCC(O)CNCCOc3ccc(O)cc3)c2C1=Cc1ccccc1C(=O)O (centres unmarked) [Example 1r] in the records?
205

Could you share which β1-Blockade ID30 fcor value was measured for CSc1ccc(C=C2C(=O)Nc3cccc(OCC(O)CNC(C)C)c32)c(O)c1 (centres unmarked) [Example 1d] ?
21

====

- test: Tolerability of i.v. doses
- assayContext: in vivo, iv, not tolerated at all, read-out: dose above which not tolerated at all
measuredEndpoint: MTD

Returns the measured MTD for the input compound. Input: CC(C)NCC(O)COc1cccc2ccccc12 (stereo not shown) [Propranolol, reference compound]
> 30 mg/kg

====

- Test system: CSE reflex (arterial blood pressure)
- test: Vasodilating activity: weakening of the carotid occlusion (CSE) reflex blood pressure rise in anesthetized rabbits
- Type: in vivo, rabbit
- assayContext: ratio of beta-blocking ID50 to vasodilating ED-30
measuredEndpoint: BQ (ID50 fcor / ED-30 mm Hg)

>  <molecule>
CC(C)NCC(O)COc1cccc2ccccc12 (centres unmarked) [Propranolol, reference compound]

>  <BQ (ID50 fcor / ED-30 mm Hg)>
0,01

$$$$
>  <molecule>
O=C1Nc2cccc(OCC(O)CNCCOc3ccc(O)cc3)c2C1=Cc1ccccc1C(=O)O (centres unmarked) [Example 1r]

>  <BQ (ID50 fcor / ED-30 mm Hg)>
0,41

$$$$
>  <molecule>
O=C1Nc2cccc(OCC(O)CNCCOc3ccccc3)c2C1=Cc1ccn[nH]1 (centres unmarked) [Example 1u]

>  <BQ (ID50 fcor / ED-30 mm Hg)>
0,18

$$$$
>  <molecule>
COc1ccc(CCNCC(O)COc2cccc3c2CC(=O)N3)cc1 (centres unmarked) [BM 12.946, reference compound]

>  <BQ (ID50 fcor / ED-30 mm Hg)>
0,02

$$$$
>  <molecule>
O=C(O)/C=C/C(=O)O.O=C1Nc2cccc(OCC(O)CNCCOc3ccc(O)cc3)c2C1Cc1ccn[nH]1 (centres unmarked) [Example 7e]

>  <BQ (ID50 fcor / ED-30 mm Hg)>
0,47

$$$$
>  <molecule>
O=C(O)c1ccccc1.O=C1Nc2cccc(OCC(O)CNCCOc3ccc(O)cc3)c2C1=Cc1ccccc1O (centres unmarked) [Example 1p]

>  <BQ (ID50 fcor / ED-30 mm Hg)>
1,24

$$$$

Fill in the blank: the reported BQ (ID50 fcor / ED-30 mm Hg) of CC(C)NCC(O)COc1cccc2c1CC(=O)N2 (centres unmarked) [BM 14.171, reference compound] is ____.
0,0004

Which BQ (ID50 fcor / ED-30 mm Hg) value belongs to CC(C)NCC(O)COc1cccc2c1C(=Cc1ccccc1O)C(=O)N2 (centres unmarked) [Example 1a] ?
0,12

====

- Test system: CSE reflex (arterial blood pressure)
- test: Vasodilating activity: weakening of the carotid occlusion (CSE) reflex blood pressure rise in anesthetized rabbits
- Format: in vivo, rabbit
- assayContext: ratio of beta-blocking ID50 to vasodilating ED-30
measuredEndpoint: BQ (ID50 fcor / ED-30 mm Hg)

>  <compound>
CSc1ccc(C=C2C(=O)Nc3cccc(OCC(O)CNC(C)C)c32)c(O)c1 (stereo not drawn)

>  <BQ (ID50 fcor / ED-30 mm Hg)>
0,03

$$$$
>  <compound>
O=C(O)/C=C/C(=O)O.O=C1Nc2cccc(OCC(O)CNCCOc3ccccc3)c2C1Cc1ccn[nH]1 (stereo not drawn)

>  <BQ (ID50 fcor / ED-30 mm Hg)>
2,37

$$$$

Attention now shifts to the item below.
Could you tell me which BQ (ID50 fcor / ED-30 mm Hg) is on file for O=C1Nc2cccc(OCC(O)CNCCOc3ccc(O)cc3)c2C1Cc1ccccc1O (stereo not drawn) ?
0,09
